B1: glmS ribozyme (parent)
chain: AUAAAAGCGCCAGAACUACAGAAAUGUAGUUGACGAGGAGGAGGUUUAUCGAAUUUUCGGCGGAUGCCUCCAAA

variants of: B1; experiment: kcat; higher = faster cleavage; RNA array; settings: with glucosamine-6-phosphate
Fewer inactive variants are shown than the library holds.
REPORTED METRIC: log10 kcat (log10 of the value in s⁻¹)
Hi team, quick reminder: these entries are log10 of kcat (s⁻¹).

Study these solved cases before continuing.
• C58G G66U = -4.98
• U31G U65C = -3.76
• C16G A64C = -4.68
• A53G A64C = -3.68
• C16A U69A = -4.47

Dear colleague, I am looking for the recorded log10 kcat of the following variant: U30C G37C C70U -4.79

Which log10 kcat reading was recorded for the variant C67G C70U ? -3.79

Quick one: log10 kcat for U45G C58G ? -4.21

Which log10 kcat reading was recorded for the variant G40U U45A ? -2.66

Suppose we examine the variant G40A G66U ; what log10 kcat value has been reported? -3.62

Look up log10 kcat for this variant: G66C C70G -3.94

Reported log10 kcat, variant U45A C67A C68G : ____ -4.84

# lookup: log10 kcat of `A52U` -3.33

Could you share which log10 kcat value was measured for U49G C58A ? -4.49

Given the variant U30C A53G , what is its reported log10 kcat? -3.39

For the variant A39C U54A , what log10 kcat is on record? -2.32
